Tested on: MDA-MB-231
procedure.details: Antiproliferation activity against human MDA-MB-231 cells assessed as reduction in cell viability after 72 hrs by CCK8 assay
Type: functional, cell-based
condition.description: MDA-MB-231, 72 h
Classification scheme (IC50): 0: < 2 µM; 1: ≥ 2 µM and < 5 µM; 2: ≥ 5 µM

Study these solved cases before continuing.
INSERT INTO results (compound, cat) VALUES
  ('COc1cccc(OC)c1C(=O)Nc1ccc(C(=O)/C=C/c2nc(C)c(C)nc2C)cc1', 1),
  ('Cc1nc(C)c(/C=C/C(=O)c2ccc(NC(=O)c3ccc(F)cc3)cc2)nc1C', 0),
  ('COc1cc2nccc(Oc3ccc(NC(=O)C4(C(=O)Nc5ccc(F)cc5)CC4)cc3)c2cc1OC [CABOZANTINIB]', 2),
  ('O=C(/C=C/c1ccc(O)cc1)c1ccc(O)cc1O', 2),
  ('COc1ccc(C(=O)Nc2ccc(C(=O)/C=C/c3nc(C)c(C)nc3C)cc2)cc1OC', 1),
  ('Cc1nc(C)c(C)nc1C', 2),
  ('COc1cc(C(=O)Nc2ccc(C(=O)/C=C/c3nc(C)c(C)nc3C)cc2)cc(OC)c1OC', 1),
  ('COc1ccc(C(=O)Nc2ccc(C(=O)/C=C/c3nc(C)c(C)nc3C)cc2)cc1', 0);

In: Category of "Cc1nc(C)c(/C=C/C(=O)c2ccc(NC(=O)c3ccccc3)cc2)nc1C" , please.
Out: 0
